- assay_protocol: Maximum carbon dioxide (CO2) release temperature of amine compound (DSC after CO2 absorption from air)
- Format: physicochemical
- measurement_context: amine compound with CO2 absorbed (air, 23° C., 50% RH, 24 hours); heating 10° C./minute, 23 to 250° C., nitrogen
Measured Maximum CO2 release temperature by item
All answers are understood in °C, so give the number only.

Known Maximum CO2 release temperature results, listed for orientation:
CC1(C)CC(N)CC(C)(CN)C1 (stereo not shown) [IPDA, isophoronediamine] ... 114.4
NCC1CCCC(CN)C1 (stereo not shown) [1,3-BAC, 1,3-bis(aminomethyl)cyclohexane] ... 125.7
NCCN [Ethylenediamine, ethylenediamine] ... 103.4

Look up Maximum CO2 release temperature: NCc1cccc(CN)c1 [MXDA, metaxylylenediamine]
135.5
